src = patent US12286435B2

biological target: BRD4 BD1 protein (Homo sapiens (Human)); assay: Fluorescence polarization binding affinity (Ki) with BRD4 BD1 protein; settings: fluorescence polarization; Ki calculated from IC50
metric name: pKi
Please note pKi is a logarithmic value: minus log10 of concentration in mol/L. Answer with that number alone.

Ask: Please provide the recorded pKi for CCn1cc(-c2ccc3c(c2)C(Nc2ccc(Cl)cc2)CCc2onc(C)c2-3)cn1 (stereo not drawn) , tested on BRD4 BD1 protein (Homo sapiens (Human)).
Reply: 7.12

Ask: Form: Entry = Cc1nnn2c1-c1ccc(-c3cnn(C)c3)cc1C(Nc1cccc(CN(C)C)c1)CC2 (stereo not drawn) | System = BRD4 BD1 protein (Homo sapiens (Human)) | pKi = ____
Reply: 7.03

Ask: Enter reported pKi observed with BRD4 BD1 protein (Homo sapiens (Human)) for Cc1nnn2c1-c1ccccc1C(Nc1cccc3cnccc13)CC2 (stereo not drawn)
Reply: 6.22

Ask: Form field - read-out: pKi; system: BRD4 BD1 protein (Homo sapiens (Human)); submitted item: Cc1noc2c1-c1ccc(-c3cnn(C)c3)cc1C(Nc1ccc(Cl)cc1)CC2 (stereo not drawn)
Reply: 7.27

Ask: API: value(readout= pKi, system= BRD4 BD1 protein (Homo sapiens (Human)), query= Cc1nnn2c1-c1ccc(C3=CCNCC3)cc1C(Nc1cccc(C#N)c1)CC2 (stereo not drawn) [LC75, 2,2,2-trifluoroacetate] )
Reply: 5.64

Ask: Record CC(=O)N1CC=C(c2ccc3c(c2)C(Oc2cccc(Cl)c2)CCn2nnc(C)c2-3)CC1 (stereo not drawn) : what is its pKi with BRD4 BD1 protein (Homo sapiens (Human))?
Reply: 6.06

Ask: API: value(readout=pKi, system=BRD4 BD1 protein (Homo sapiens (Human))) for record Cc1nnn2c1-c1ccc(-c3cnn(C)c3)cc1C(Nc1cccc(CO)c1)CC2 (stereo not drawn)
Reply: 7.02

Ask: Lab request: please report pKi under test system BRD4 BD1 protein (Homo sapiens (Human)) for COC(=O)c1ccc(NC2CCn3nnc(C)c3-c3ccc(-c4cnn(C)c4)cc32)cc1 (stereo not drawn)
Reply: 7.35

###

target: BRD4 BD1 protein (Homo sapiens (Human), UniProt O60885); assay: Fluorescence polarization binding affinity (Ki) with BRD4 BD1 protein; conditions: fluorescence polarization; Ki calculated from IC50
For each record, write down the corresponding pKi.
The scale used: pKi is minus the common logarithm of the concentration in molar units.

Ask: Recorded pKi of Cc1nnn2c1-c1ccc(-c3cnn(C)c3)cc1C(Nc1ccnn1C)CC2 (stereo not shown) [BE118] , please.
Reply: 6.57

Ask: What does the data say about its pKi? Entry: COc1cccc(NC2CCn3nnc(C)c3-c3ccc(C4=CCN(C)CC4)cc32)c1 (stereo not shown) [BH23, 2,2,2-trifluoroacetate]
Reply: 6.12

Ask: Give its pKi value. Item: Cc1nnn2c1-c1ccc(C3=CCN(C4CCCCC4)CC3)cc1C(Nc1cccc(Cl)c1)CC2 (stereo not shown) [BH104, 2,2,2-trifluoroacetate]
Reply: 6.15

Ask: Can you share its pKi? I mean this compound: Cc1nnn2c1-c1ccc(C3=CCNCC3)cc1C(Nc1ccccc1C#N)CC2 (stereo not shown) [RC116, 2,2,2-trifluoroacetate]
Reply: 6.00

###

Could you please report measured IC50 for the items listed next?
test system: breast cancer MDA-MB-231 cell line; assay: Cell viability (CCK-8), breast cancer MDA-MB-231; type: cell-based; settings: Homo sapiens, 96 h; MDA-MB-231 cells, 4 days, CCK-8, 50% inhibition of cell growth
Return type: number; implicit unit nM.

Ask: For the compound shown here, COC(=O)c1ccc(NC2CCn3nnc(C)c3-c3ccc(-c4cnn(C)c4)cc32)cc1 (stereo not shown) , give the reported IC50.
Reply: 43

Ask: Query: IC50; subject: Cc1nnn2c1-c1ccc(-c3cn(C)nn3)cc1C(Nc1ccc(Cl)cc1)CC2 (stereo not shown)
Reply: 65

Ask: Any idea what its IC50 is? The compound is Cc1nnn2c1-c1ccc(-c3cnn(C)c3)cc1C(Nc1ccccc1N(C)C)CC2 (stereo not shown)
Reply: 450

Ask: Field request: IC50 | item: CCn1cc(-c2ccc3c(c2)C(Nc2ccc(Cl)cc2)CCn2nnc(C)c2-3)cn1 (stereo not shown)
Reply: 1

Ask: Would you kindly share the measured IC50 for Cc1nnn2c1-c1ccc(-c3cnc4[nH]cnc4c3)cc1C(Nc1ccc(Cl)cc1)CC2 (stereo not shown) ?
Reply: 105

Ask: Query (compound): COc1ccc2c(c1)C(Nc1ccc(C#N)cc1)CCc1onc(C)c1-2 (stereo not shown) ; field requested: IC50
Reply: 89

Ask: Quick one: IC50 for Cc1nnn2c1-c1ccc(-c3cnn(C)c3)cc1C(Nc1ccc(Cl)cc1)CC2 (stereo not shown) ?
Reply: 11

###

Give measured log10 of Ki for each item. Keep answers brief.
target: BRD4 BD1 protein (Homo sapiens (Human), UniProt O60885); test: Fluorescence polarization binding affinity (Ki) with BRD4 BD1 protein; details: fluorescence polarization; Ki calculated from IC50
Units before log transform: nM; reported quantity: Ki; transform: log10.

Ask: Query (molecule): Cc1nnn2c1-c1ccc(C3=CCNCC3)cc1C(Nc1cccc(O)c1)CC2 (centres unmarked) [LC97, 2,2,2-trifluoroacetate] ; field requested: log10 of Ki
Reply: 2.90

Ask: I'd like to know its log10 of Ki. The molecule in question is CC(=O)N1CC=C(c2ccc3c(c2)C(Nc2cccc(Cl)c2F)CCn2nnc(C)c2-3)CC1 (centres unmarked)
Reply: 1.72

Ask: Which log10 of Ki is reported for this molecule? COc1ccc2c(c1)C(Nc1ccc(C#N)cc1)CCc1onc(C)c1-2 (centres unmarked)
Reply: 1.92

Ask: Need log10 of Ki of Cc1noc2c1-c1ccc(-c3cn[nH]c3)cc1C(Nc1ccc(Cl)cc1)CC2 (centres unmarked) , thanks.
Reply: 1.91

Ask: Given the molecule Cc1nnn2c1-c1ccc(-c3cnn(C)c3)cc1C(Nc1ccccc1CC(=O)O)CC2 (centres unmarked) , what is its reported log10 of Ki?
Reply: 2.34

Ask: Tell me the measured log10 of Ki of CC(=O)N1CC=C(c2ccc3c(c2)C(Nc2ccc(Cl)cc2)CCn2nnc(C)c2-3)CC1 (centres unmarked) , please.
Reply: 1.59

Ask: What value of measured log10 of Ki is listed for COc1ccc2c(c1)C(Nc1ccccc1)CCc1onc(C)c1-2 (centres unmarked) ?
Reply: 2.31

Ask: # input molecule: Cc1nnn2c1-c1ccc(C3=CCNCC3)cc1C(Nc1cc(Cl)ccc1F)CC2 (centres unmarked) [LD08, 2,2,2-trifluoroacetate] ; wanted: its log10 of Ki
Reply: 3.10

###

target: BRD4 BD1 protein (Homo sapiens (Human), UniProt O60885); assay: Fluorescence polarization binding affinity (Ki) with BRD4 BD1 protein; conditions: fluorescence polarization; Ki calculated from IC50
What Ki was measured for each of the following?
Use nM as the unit, but write only the number.

Ask: Under BRD4 BD1 protein (Homo sapiens (Human), UniProt O60885): Ki value of Cc1nnn2c1-c1ccc(C3=CCNCC3)cc1C(Nc1ccccc1Cl)CC2 (centres unmarked) [LC84, 2,2,2-trifluoroacetate] ?
Reply: 845

Ask: // map COc1ccc2c(c1)C(Nc1ccc(F)cc1)CCc1onc(C)c1-2 (centres unmarked) to recorded Ki (system: BRD4 BD1 protein (Homo sapiens (Human), UniProt O60885))
Reply: 172

Ask: Under BRD4 BD1 protein (Homo sapiens (Human), UniProt O60885): Ki value of Cn1cc(-c2ccc3c(c2)C(Nc2ccc(Cl)cc2)CCn2nnc(C4CC4)c2-3)cn1 (centres unmarked) ?
Reply: 173

Ask: Lab request: please report Ki under test system BRD4 BD1 protein (Homo sapiens (Human), UniProt O60885) for Cc1nnn2c1-c1ccc(-c3cnn(C)c3)cc1C(Nc1ccc3cc[nH]c3c1)CC2 (centres unmarked)
Reply: 38

Ask: What is its Ki for BRD4 BD1 protein (Homo sapiens (Human), UniProt O60885)? Entry: Cc1nnn2c1-c1ccc(-c3cnn(C)c3)cc1C(Nc1c(F)cccc1Cl)CC2 (centres unmarked)
Reply: 162
